# TARGET ENTITY: Torsin-1A (Homo sapiens)
# EXPERIMENT NOTES: torsin A binders from cell lysate, primary screen, small-molecule microarray, wild-type, 635/667 nm (AID 1149)
# EXPERIMENTAL PARAMETERS: COS7 hTOR1A-WT lysate, 635 nm fluorescence, higher = more signal
Hi there, I'd appreciate the recorded composite z-score for every entry that follows.

Record `C=CCOC(=O)[C@H]1[C@@H]2C(=O)O[C@@H](c3ccccc3)[C@@H](c3ccccc3)N2[C@@H](c2ccc(OCCOC(=O)[C@H]3C[C@H]4C(=O)NCC(=O)N4[C@H]3c3cccc(OCCO)c3)cc2)[C@]12C(=O)Nc1ccc(I)cc12` . Reported composite z-score: 0.418

Record `CC(C)[Si](C#Cc1ccccc1)(O[C@H](c1ccccc1)c1cn(Cc2ccccc2)nn1)C(C)C` . Reported composite z-score: 0.555

Record `C=CCOC(=O)[C@H]1[C@@H]2C(=O)O[C@@H](c3ccccc3)[C@@H](c3ccccc3)N2[C@@H](c2ccc(OCCOC(=O)[C@H]3C[C@H]4C(=O)NCC(=O)N4[C@H]3c3ccc(O)cc3)cc2)[C@]12C(=O)Nc1ccccc12` . Reported composite z-score: 0.603

Record CCOC(=O)C1=CCC(c2ccncc2)N(S(=O)(=O)c2ccc(C)cc2)C1 (stereo unspecified) . Reported composite z-score: 0.344

Record `COC(=O)[C@H]1N=C(c2ccc(OCCCO)cc2)O[C@H]1c1ccccc1N=[N+]=[N-]` . Reported composite z-score: 0.698

Record `COc1ccc(CCNC(=O)[C@@H]2c3ccccc3C(=O)N(Cc3cc(F)cc(C(F)(F)F)c3)[C@H]2c2ccc(CO)cc2)cc1` . Reported composite z-score: 0.642
